# target under test: Human immunodeficiency virus type 1 reverse transcriptase (Human immunodeficiency virus 1, UniProt Q72547, K103N)
# assay overview: Inhibition of Human immunodeficiency virus reverse transcriptase K103N mutant by SPA assay
value type: pKi
One number for each entry, as −log10 of the molar value.

Sample answers from the record:
molecule: N#Cc1cc(Cl)cc(Oc2cc(NCc3n[nH]c4ncccc34)c(N)cc2Cl)c1
pKi: 8.42

molecule: N#Cc1cc(Cl)cc(Oc2c(Cl)ccc3c2nnn3Cc2n[nH]c3nc(N)ccc23)c1
pKi: 9.03

molecule: N#Cc1cc(Cl)cc(Oc2cc(OCc3n[nH]c4ncccc34)ccc2Cl)c1
pKi: 9.66

molecule: N#Cc1cc(Cl)cc(Oc2c(Cl)ccc3c2ncn3Cc2n[nH]c3ncccc23)c1
pKi: 8.28

molecule: N#Cc1cc(Cl)cc(Oc2c(Cl)ccc3c2c(Cl)nn3Cc2n[nH]c3ncccc23)c1
pKi: 7.55

molecule: N#Cc1cc(Cl)cc(Oc2c(Cl)ccc3c2cnn3Cc2n[nH]c3nc(N)ccc23)c1
pKi: 8.77

molecule: N#Cc1cc(Cl)cc(Oc2c(Cl)ccc3c2cnn3Cc2n[nH]c3ncccc23)c1 [MK-6186]
pKi: 9.24

Pending molecule:
q: Could you tell me which pKi is on file for N#Cc1cc(Cl)cc(Oc2c(Cl)ccc3c2nnn3Cc2n[nH]c3ncccc23)c1 ?
a: 9.37

====

# assay overview: Half life in Beagle dog at 0.125 mg/kg, iv
# Format: ADME, organism-based, Canis lupus familiaris
# Parameters: dose 0.125 mg/kg, route intravenous
# condition set: in vivo
value type: half-life (h)
Give bare numbers, in h.

q: I am curious: what half-life value has been reported for N#Cc1cc(Cl)cc(Oc2c(Cl)ccc3c2nnn3Cc2n[nH]c3nc(N)ccc23)c1 ?
a: 12.8

====

# assay overview: Volume of distribution in Beagle dog at 2 mg/kg, po and 0.5 mg/kg, iv
# Assay type: ADME, organism-based, Canis lupus familiaris
# condition set: in vivo
value type: Vd (L/kg)
Numbers only, in L/kg.

q: What does the record list as Vd for N#Cc1cc(Cl)cc(Oc2c(Cl)ccc3c2cnn3Cc2n[nH]c3nc(N)ccc23)c1 ?
a: 2

====

Provide the recorded Vd for the entries that follow.
# assay overview: Volume of distribution in Beagle dog at 2 mg/kg, po and 1 mg/kg, iv
# Format: ADME, organism-based, Canis lupus familiaris
# condition set: in vivo
Answers are plain numbers, in L/kg.

Illustrative cases are given below, each with its answer.
test smiles: N#Cc1cc(Cl)cc(Oc2c(Cl)ccc3c2cnn3Cc2n[nH]c3ncccc23)c1
Vd / L/kg: 6
//
test smiles: N#Cc1cc(Cl)cc(Oc2c(Cl)ccc3c2nnn3Cc2n[nH]c3ncccc23)c1
Vd / L/kg: 1.3

Let us examine a further case.
q: Quick one: Vd of N#Cc1cc(Cl)cc(Oc2c(Cl)ccc3c2ncn3Cc2n[nH]c3ncccc23)c1 ?
a: 0.37

====

# assay overview: Volume of distribution in Beagle dog at 0.125 mg/kg, iv
# Format: ADME, organism-based, Canis lupus familiaris
# Set-up: dose 0.125 mg/kg, route intravenous
# condition set: in vivo
value type: Vd (L/kg)
Answers are plain numbers, in L/kg.

q: Please report the recorded Vd for N#Cc1cc(Cl)cc(Oc2c(Cl)ccc3c2nnn3Cc2n[nH]c3nc(N)ccc23)c1 .
a: 0.65

====

Hi there, I'd appreciate the recorded IC95 for every entry that follows.
# Test system: Human immunodeficiency virus
# assay overview: Antiviral activity against Human immunodeficiency virus expressing wild type reverse transcriptase infected in human MT4 cells by p24 antigen assay in the presence of 50% normal human serum
# Format: functional
# condition set: Human immunodeficiency virus 1, MT4; read-out: CIC95
One number for each entry, in nM.

molecule: N#Cc1cc(Cl)cc(Oc2cc(OCc3n[nH]c4ncccc34)ccc2Cl)c1
value: 52
//
molecule: N#Cc1cc(Cl)cc(Oc2cc(OCc3n[nH]c4nc(N)ccc34)ccc2Cl)c1
value: 26
//
molecule: NCc1cc(Cl)cc(Oc2c(Cl)ccc3c2nnn3Cc2n[nH]c3ncccc23)c1Cl
value: 281
//
molecule: N#Cc1cc(Cl)cc(Oc2c(Cl)ccc3c2cnn3Cc2n[nH]c3ncccc23)c1 [MK-6186]
value: 64
//
molecule: N#Cc1cc(Cl)cc(Oc2c(Cl)ccc3c2ncn3Cc2n[nH]c3ncccc23)c1
value: 390
//
molecule: N#Cc1cc(Cl)cc(Oc2c(Cl)ccc3c2nnn3Cc2n[nH]c3nc(N)ccc23)c1
value: 36

// each molecule listed below needs its IC95
1. N#Cc1cc(Cl)cc(Oc2c(Cl)ccc3c2nnn3Cc2n[nH]c3ncccc23)c1
2. N#Cc1cc(Cl)cc(Oc2c(Cl)ccc3c2cnn3Cc2n[nH]c3nc(N)ccc23)c1

a:
1: 23; 2: 43

====

# System: Rattus norvegicus
# assay overview: Dose normalised AUC in Sprague-Dawley rat at 10 mg/kg, po by LC-MS analysis
# Assay type: ADME, organism-based
# Set-up: dose 10 mg/kg, route oral
# condition set: in vivo
# label = condition met if AUC/dose < 2 µM·h else condition not met

compound: N#Cc1cc(Cl)cc(Oc2c(Cl)ccc3c2cnn3Cc2n[nH]c3ncccc23)c1 [MK-6186]
cat: condition met
--
compound: N#Cc1cc(Cl)cc(Oc2cc(OCc3n[nH]c4ncccc34)ccc2Cl)c1
cat: condition met
--
compound: N#Cc1cc(Cl)cc(Oc2cc(OCc3n[nH]c4nc(N)ccc34)ccc2Cl)c1
cat: condition not met
--
compound: N#Cc1cc(Cl)cc(Oc2c(Cl)ccc3c2nnn3Cc2n[nH]c3ncccc23)c1
cat: condition met
--
compound: N#Cc1cc(Cl)cc(Oc2c(Cl)ccc3c2cnn3Cc2n[nH]c3nc(N)ccc23)c1
cat: condition not met

q: Please state whether AUC/dose is below 2 µM·h for N#Cc1cc(Cl)cc(Oc2c(Cl)ccc3c2nnn3Cc2n[nH]c3nc(N)ccc23)c1
a: condition met

q: Moving on to the next compound: N#Cc1cc(Cl)cc(Oc2c(Cl)ccc3c2ncn3Cc2n[nH]c3ncccc23)c1
a: condition met

====

# assay overview: Volume of distribution in Sprague-Dawley rat at 10 mg/kg, po and 2 mg/kg, iv
# Type: ADME, organism-based
# condition set: in vivo
value type: Vd (L/kg)
Give bare numbers, in L/kg.

Observe how each entry below is paired with its result.
molecule: N#Cc1cc(Cl)cc(Oc2c(Cl)ccc3c2cnn3Cc2n[nH]c3ncccc23)c1 [MK-6186]
value: 10.5

molecule: N#Cc1cc(Cl)cc(Oc2c(Cl)ccc3c2ncn3Cc2n[nH]c3ncccc23)c1
value: 3.3

molecule: N#Cc1cc(Cl)cc(Oc2c(Cl)ccc3c2nnn3Cc2n[nH]c3ncccc23)c1
value: 5.5

molecule: N#Cc1cc(Cl)cc(Oc2c(Cl)ccc3c2nnn3Cc2n[nH]c3nc(N)ccc23)c1
value: 4.4

Turning now to a further record.
q: Fill in the blank: the reported Vd of N#Cc1cc(Cl)cc(Oc2c(Cl)ccc3c2cnn3Cc2n[nH]c3nc(N)ccc23)c1 is ____.
a: 2.5

====

Please go through the items and note down their clearance.
# assay overview: Plasma clearance in Sprague-Dawley rat at 10 mg/kg, po and 2 mg/kg, iv
# Format: ADME, organism-based
Answers are plain numbers, in mL/min/kg.

Recorded clearance, per entry:
compound: N#Cc1cc(Cl)cc(Oc2c(Cl)ccc3c2nnn3Cc2n[nH]c3ncccc23)c1
unit string: mL/min/kg
value: 14
//
compound: N#Cc1cc(Cl)cc(Oc2c(Cl)ccc3c2cnn3Cc2n[nH]c3ncccc23)c1 [MK-6186]
unit string: mL/min/kg
value: 18

List the reported clearance of each compound below.
1. N#Cc1cc(Cl)cc(Oc2c(Cl)ccc3c2cnn3Cc2n[nH]c3nc(N)ccc23)c1
2. N#Cc1cc(Cl)cc(Oc2c(Cl)ccc3c2nnn3Cc2n[nH]c3nc(N)ccc23)c1
3. N#Cc1cc(Cl)cc(Oc2c(Cl)ccc3c2ncn3Cc2n[nH]c3ncccc23)c1

a:
1: 4.7; 2: 11.9; 3: 25.6

====

Answer each item with its documented half-life.
# assay overview: Half life in Sprague-Dawley rat at 10 mg/kg, po and 2 mg/kg, iv
# Format: ADME, organism-based
# condition set: in vivo

// known answers, use as guide
compound: N#Cc1cc(Cl)cc(Oc2c(Cl)ccc3c2cnn3Cc2n[nH]c3ncccc23)c1 [MK-6186]
value: 7.6 h

compound: N#Cc1cc(Cl)cc(Oc2c(Cl)ccc3c2nnn3Cc2n[nH]c3nc(N)ccc23)c1
value: 4.7 h

compound: N#Cc1cc(Cl)cc(Oc2c(Cl)ccc3c2cnn3Cc2n[nH]c3nc(N)ccc23)c1
value: 6.3 h

compound: N#Cc1cc(Cl)cc(Oc2c(Cl)ccc3c2nnn3Cc2n[nH]c3ncccc23)c1
value: 4.8 h

q: Using the record for N#Cc1cc(Cl)cc(Oc2c(Cl)ccc3c2ncn3Cc2n[nH]c3ncccc23)c1 , report its half-life.
a: 2.4 h
